system: Blumeria graminis f. sp. tritici; assay: Test F: preventive spray on wheat seedlings, visual disease rating (wheat powdery mildew); type: in vivo; details: no asterisk: standard test suspension, not 40 ppm
MEASURED_ENDPOINT: Test F rating (% disease control)

Study these solved cases before continuing.
Problem: Looking for the measured Test F rating (% disease control) of Cc1nn(C)c(-c2c(F)cc(Br)cc2F)c1C(O)c1ccc(F)cc1F (centres unmarked) [compound 106] , can you help?
Result: 0%

Problem: Looking for the measured Test F rating (% disease control) of Cc1nn(C)c(-c2c(F)cccc2F)c1S(=O)(=O)c1ccc(Cl)cc1 [compound 62] , can you help?
Result: 94%

Problem: Looking for the measured Test F rating (% disease control) of Cc1nn(C)c(-c2c(Cl)cccc2Cl)c1C(O)c1ccc(F)cc1F (centres unmarked) [compound 74] , can you help?
Result: 98%

Next item in the queue.
Problem: Looking for the measured Test F rating (% disease control) of Cc1nn(C)c(-c2c(F)cccc2Cl)c1C(O)c1c(Cl)cc(Cl)cc1Cl (centres unmarked) [compound 55] , can you help?
Result: 95%

* * *

test system: Puccinia recondite f. sp. tritici; assay: Test E2: preventive spray on wheat seedlings, visual disease rating (wheat leaf rust); type: in vivo; conditions: asterisk: 40 ppm test suspension
Marks after values point to notes of the source that are not given here.
// Test E2 rating (% disease control) lookup, one value per entry

Problem: Looking for the measured Test E2 rating (% disease control) of COc1nn(C)c(-c2c(F)cc(F)cc2F)c1C(O)c1c(F)cccc1Cl (stereo not drawn) , can you help?
Result: 100* %

Others:
Problem: Looking for the measured Test E2 rating (% disease control) of Cc1nn(C)c(-c2ccc(F)cc2I)c1C(O)c1ccc(F)cc1Cl (single isomer, unassigned) , can you help?
Result: 97* %

Problem: Looking for the measured Test E2 rating (% disease control) of Cc1nn(C)c(-c2c(Cl)cncc2Cl)c1C(O)c1ccc(F)cc1F (stereo not drawn) , can you help?
Result: 0* %

Problem: Looking for the measured Test E2 rating (% disease control) of Cc1nn(C)c(-c2ccc(F)cc2Br)c1C(O)c1ccc(F)cc1Cl (stereo not drawn) , can you help?
Result: 98* %

Problem: Looking for the measured Test E2 rating (% disease control) of COc1cc(F)c(C(O)c2c(C)nn(C)c2-c2ccc(F)cc2Cl)c(F)c1 (stereo not drawn) , can you help?
Result: 99* %

Problem: Looking for the measured Test E2 rating (% disease control) of Cc1nn(C)c(-c2c(F)cccc2F)c1C(SC#N)c1c(F)cc(F)cc1F (stereo not drawn) , can you help?
Result: 9* %

Problem: Looking for the measured Test E2 rating (% disease control) of COc1nn(C)c(-c2c(F)cccc2F)c1C(O)c1c(F)ccc(F)c1Cl (stereo not drawn) , can you help?
Result: 80* %

Problem: Looking for the measured Test E2 rating (% disease control) of Cc1nn(C)c(-c2c(F)cncc2F)c1C(O)c1ccc(F)cc1Cl (stereo not drawn) , can you help?
Result: 99* %

* * *

// Test F rating (% disease control) lookup, one value per entry
system: Blumeria graminis f. sp. tritici; assay: Test F: preventive spray on wheat seedlings, visual disease rating (wheat powdery mildew); assay type: in vivo; details: asterisk: 40 ppm test suspension
Marks after values point to notes of the source that are not given here.

Study these solved cases before continuing.
Problem: Looking for the measured Test F rating (% disease control) of COc1ccc(C(O)c2c(OC)nn(C)c2-c2c(F)cccc2Cl)c(Cl)c1 (stereo not drawn) [compound 142] , can you help?
Result: 100* %

Problem: Looking for the measured Test F rating (% disease control) of COc1cc(F)c(-c2c(C(O)c3c(F)cc(F)cc3F)c(C)nn2C)c(F)c1 (stereo not drawn) [compound 173] , can you help?
Result: 95* %

Problem: Looking for the measured Test F rating (% disease control) of COc1ccc(C(O)c2c(OC)nn(C)c2-c2c(F)cccc2F)c(F)c1 (stereo not drawn) [compound 161] , can you help?
Result: 90* %

Others:
Problem: Looking for the measured Test F rating (% disease control) of Cc1nn(C)c(-c2c(Cl)cncc2Cl)c1C(O)c1ccc(F)cc1F (stereo not drawn) [compound 167] , can you help?
Result: 0* %

Problem: Looking for the measured Test F rating (% disease control) of COc1nn(C)c(-c2c(F)cccc2Cl)c1C(O)c1c(F)ccc(F)c1Cl (stereo not drawn) [compound 144] , can you help?
Result: 98* %

Problem: Looking for the measured Test F rating (% disease control) of COc1ccc(C(O)c2c(C)nn(C)c2-c2c(F)cccc2Cl)c(Cl)c1 (stereo not drawn) [compound 170] , can you help?
Result: 98* %

Problem: Looking for the measured Test F rating (% disease control) of Cc1nn(C)c(-c2ccc(F)cc2Cl)c1Nc1ccc(F)cc1Br [compound 58] , can you help?
Result: 97* %

Problem: Looking for the measured Test F rating (% disease control) of COc1nn(C)c(-c2c(F)cccc2Cl)c1C(O)c1c(F)ccc(F)c1F (stereo not drawn) [compound 145] , can you help?
Result: 73* %

Problem: Looking for the measured Test F rating (% disease control) of Cc1nn(C)c(-c2ccc(F)cc2)c1C(O)c1ccc(F)cc1Cl (stereo not drawn) [compound 105] , can you help?
Result: 81* %

* * *

// Test F rating (% disease control) lookup, one value per entry
test system: Blumeria graminis f. sp. tritici; assay: Test F: preventive spray on wheat seedlings, visual disease rating (wheat powdery mildew); format: in vivo; details: asterisk: 40 ppm test suspension
Marks after values point to notes of the source that are not given here.

Study these solved cases before continuing.
Problem: Looking for the measured Test F rating (% disease control) of Cc1nn(C)c(-c2c(F)cccc2F)c1C(Cl)c1ccc(F)cc1Cl (stereo not shown) , can you help?
Result: 100* %

Problem: Looking for the measured Test F rating (% disease control) of Cc1nn(C)c(-c2c(Cl)cncc2Cl)c1C(O)c1ccc(F)cc1Cl (stereo not shown) , can you help?
Result: 100* %

Problem: Looking for the measured Test F rating (% disease control) of `Cc1nn(C)c(-c2ccc(F)cc2Br)c1C(=O)c1ccc(F)cc1Cl` , can you help?
Result: 99* %

Next item in the queue.
Problem: Looking for the measured Test F rating (% disease control) of COc1nn(C)c(-c2c(F)cc(F)cc2F)c1C(O)c1ccc(F)cc1F (stereo not shown) , can you help?
Result: 100* %

* * *

System: Blumeria graminis f. sp. tritici
Test: Test F: preventive spray on wheat seedlings, visual disease rating (wheat powdery mildew)
Format: in vivo
Conditions: no asterisk: standard test suspension, not 40 ppm
From the text: General protocol for preparing test suspensions for Tests A-F: the test compounds were first dissolved in acetone in an amount equal to 3% of the final volume and then suspended at the desired concentration (in ppm) in acetone and purified water (50/50 mix by volume) containing 250 ppm of the surfactant Trem® 014 (polyhydric alcohol esters). […]
MEASURED_ENDPOINT: Test F rating (% disease control) (%)
Hi! Could you send only the number? It should be in %, unit omitted.

Problem: Looking for the measured Test F rating (% disease control) of `Cc1nn(C)c(-c2c(F)cccc2Br)c1C(=O)c1ccc(F)cc1Cl` , can you help?
Result: 100

Problem: Looking for the measured Test F rating (% disease control) of `Cc1nn(C)c(-c2ccc(F)cc2Cl)c1Nc1ccc(F)cc1` , can you help?
Result: 0

Problem: Looking for the measured Test F rating (% disease control) of Cc1nn(C)c(-c2c(F)cccc2Cl)c1C(O)c1ccc(F)cc1Br (stereo not drawn) , can you help?
Result: 100

Next item in the queue.
Problem: Looking for the measured Test F rating (% disease control) of `Cc1nn(C)c(-c2c(F)cccc2F)c1Nc1ccc(F)cc1F` , can you help?
Result: 97

* * *

// Test F rating (% disease control) lookup, one value per entry
tested on: Blumeria graminis f. sp. tritici; test: Test F: preventive spray on wheat seedlings, visual disease rating (wheat powdery mildew); assay type: in vivo; details: no asterisk: standard test suspension, not 40 ppm
Hi! Could you send only the number? It should be in %, unit omitted.

Study these solved cases before continuing.
Problem: Looking for the measured Test F rating (% disease control) of Cn1ncc(C(O)c2ccc(F)cc2Cl)c1-c1c(F)cccc1F (centres unmarked) , can you help?
Result: 100

Problem: Looking for the measured Test F rating (% disease control) of Cc1nn(C)c(-n2ccnc2Cl)c1C(O)c1ccc(F)cc1F (centres unmarked) , can you help?
Result: 43

Problem: Looking for the measured Test F rating (% disease control) of `COc1ccc(-c2c(Oc3ccc(F)cc3Cl)c(C)nn2C)c(Cl)c1` , can you help?
Result: 96

Problem: Looking for the measured Test F rating (% disease control) of Cn1nc(Cl)c(C(O)c2ccc(F)cc2F)c1-c1c(F)cccc1Cl (centres unmarked) , can you help?
Result: 99

Next item in the queue.
Problem: Looking for the measured Test F rating (% disease control) of Cc1nn(C)c(-c2ccc(Cl)cc2Cl)c1C(O)c1ccc(Cl)cc1F (centres unmarked) , can you help?
Result: 72

* * *

// Test E2 rating (% disease control) lookup, one value per entry
system: Puccinia recondite f. sp. tritici; experiment: Test E2: preventive spray on wheat seedlings, visual disease rating (wheat leaf rust); assay type: in vivo; conditions: no asterisk: standard test suspension, not 40 ppm
Hi! Could you send only the number? It should be in %, unit omitted.

Problem: Looking for the measured Test E2 rating (% disease control) of Cc1nn(C)c(-c2ccc(F)cc2Cl)c1C(O)c1ccc(F)cc1Br (stereo not drawn) , can you help?
Result: 100

Problem: Looking for the measured Test E2 rating (% disease control) of Cc1cc(C)n(-c2c(C(O)c3ccc(F)cc3C)c(C)nn2C)n1 (stereo not drawn) , can you help?
Result: 0

Problem: Looking for the measured Test E2 rating (% disease control) of Cc1nn(C)c(-c2ccc(F)cc2Br)c1C(O)c1ccc(F)cc1F (stereo not drawn) , can you help?
Result: 100

Problem: Looking for the measured Test E2 rating (% disease control) of `COc1ccc(-c2c(Oc3ccc(F)cc3Cl)c(C)nn2C)c(Cl)c1` , can you help?
Result: 92
